Target: T1, IL-23 receptor on the surface of HEK-Blue IL-23 cells (UniProt Q5VWK5 24-629, limits assumed)
T1 sequence (looked up): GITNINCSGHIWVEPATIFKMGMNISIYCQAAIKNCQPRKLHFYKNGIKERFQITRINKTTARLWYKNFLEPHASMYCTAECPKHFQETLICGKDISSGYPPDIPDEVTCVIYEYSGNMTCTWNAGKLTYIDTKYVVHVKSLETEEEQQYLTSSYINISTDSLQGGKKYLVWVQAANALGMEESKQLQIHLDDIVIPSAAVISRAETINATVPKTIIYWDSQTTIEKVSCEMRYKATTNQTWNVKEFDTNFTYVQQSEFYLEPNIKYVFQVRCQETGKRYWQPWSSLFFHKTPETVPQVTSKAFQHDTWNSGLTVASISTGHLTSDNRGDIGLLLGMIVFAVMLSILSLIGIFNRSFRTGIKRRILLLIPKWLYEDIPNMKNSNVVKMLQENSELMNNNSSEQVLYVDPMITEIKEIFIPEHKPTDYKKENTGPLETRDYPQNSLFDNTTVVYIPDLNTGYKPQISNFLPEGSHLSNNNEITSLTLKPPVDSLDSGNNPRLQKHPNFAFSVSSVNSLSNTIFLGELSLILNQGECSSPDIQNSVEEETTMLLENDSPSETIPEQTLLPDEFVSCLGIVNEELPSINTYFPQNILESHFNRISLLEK
Assay: cell-based or functional assay
Positions of bridges follow the written chain, without caps; N, C: chain ends. Non-standard residues stand in square brackets, D forms with d. 2Nal = N[C@@H](Cc1ccc2ccccc2c1)C(=O)O; AEF = NCCOc1ccc(C[C@H](N)C(=O)O)cc1; αMeL = CC(C)C[C@](C)(N)C(=O)O; Nmapt = not defined here
ATTRIBUTE_MEASURED: pSTAT3 (nM)
Answers are plain numbers, in nM.

Ask | Please give the measured pSTAT3 (nM) for this binder: [Nmapt]CKWQC[AEF][2Nal][αMeL]ENN-NH2 (lactam N-10; disulfide 2-6; not fully specified (residue 3); printed as Nmapt(§1)-C(§3)(@2)-K[aAc](@3)-W-Q-C(@2)-Yae-Nal-Mle-E(§1)-N—N—NH2; reading uncertain; also: K[aAc]: Cys2 bonded to epsilon-NH2 of acetylated Lys3, acetyl presumably on alpha-amine) [Compound of SEQ ID NO: 14]
Reply | 18.7
